# target.entity: UniProtKB P35354
# Sequence (P35354 18-604): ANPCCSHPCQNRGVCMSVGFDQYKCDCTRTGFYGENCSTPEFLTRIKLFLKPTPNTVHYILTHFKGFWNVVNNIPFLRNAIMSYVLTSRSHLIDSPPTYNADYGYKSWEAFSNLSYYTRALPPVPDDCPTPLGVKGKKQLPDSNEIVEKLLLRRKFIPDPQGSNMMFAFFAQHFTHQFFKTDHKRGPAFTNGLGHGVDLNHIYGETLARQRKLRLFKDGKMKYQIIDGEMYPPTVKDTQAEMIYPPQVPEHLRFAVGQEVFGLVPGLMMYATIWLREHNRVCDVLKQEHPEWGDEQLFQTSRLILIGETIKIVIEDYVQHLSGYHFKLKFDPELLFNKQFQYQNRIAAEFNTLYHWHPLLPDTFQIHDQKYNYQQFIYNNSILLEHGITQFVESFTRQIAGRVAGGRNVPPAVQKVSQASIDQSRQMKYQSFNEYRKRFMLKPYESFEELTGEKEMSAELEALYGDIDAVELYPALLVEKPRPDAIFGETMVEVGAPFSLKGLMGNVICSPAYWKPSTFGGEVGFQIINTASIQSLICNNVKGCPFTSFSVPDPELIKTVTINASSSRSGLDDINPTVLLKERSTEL
# test.name: IC50 determinations using purified enzymes (TLC assay), COX-2
# Assay type: biochemical
# Set-up: made in house; host or cells: Sf9 insect cells
# test.conditions: Table 3; assayed against purified enzymes; read-out: IC50 COX-2
pIC50: −log10 of the molar value.
Please provide measured pIC50 for the entries that follow.

Q: Identify the reported pIC50 for the following entry. COc1ccc2c(c1)c(CC(=O)NCCCCNC(=O)CCCCCNC(=O)c1ccc(-c3c4ccc(=O)cc-4oc4cc(O)ccc34)c(C(=O)O)c1)c(C)n2C(=O)c1ccc(Cl)cc1 [Compound 27oo]
Ans: < 4.60

Q: Identify the reported pIC50 for the following entry. Cc1ccc(C(=O)N2CCN(C(=O)c3ccc(C4=c5cc6c7c(c5Oc5c4cc4c8c5CCCN8CCC4)CCC[N+]=7CCC6)c(C(=O)[O-])c3)CC2)cc1 [Compound 32]
Ans: < 4.60

Q: Identify the reported pIC50 for the following entry. COc1ccc2c(c1)c(CC(=O)NCCNC(=O)/C=C/c1ccc(N(C)C)cc1)c(C)n2C(=O)c1ccc(Cl)cc1 [Compound 27hh]
Ans: 6.29

Q: Identify the reported pIC50 for the following entry. COc1ccc2c(c1)c(CC(=O)N1CCNCC1)c(C)n2C(=O)c1ccc(Cl)cc1 [Compound 27ddd]
Ans: < 4.60

Q: Identify the reported pIC50 for the following entry. COc1ccc2c(c1)c(CC(=O)NCCN1CCN(C(=O)c3ccc(C(=O)[O-])c(C4=c5cc6c7c(c5Oc5c4cc4c8c5CCCN8CCC4)CCC[N+]=7CCC6)c3)CC1)c(C)n2C(=O)c1ccc(Cl)cc1 [Compound 27ccc]
Ans: < 4.60

Q: Identify the reported pIC50 for the following entry. CCCCNC(=O)Cc1c(C)n(C(=O)c2ccc(Cl)cc2)c2ccc(OC)cc12 [Compound 27nnn]
Ans: < 4.60

Q: Identify the reported pIC50 for the following entry. Cc1ccc(-c2cc(CCC(=O)NCCNC(=O)c3ccc(C(=O)[O-])c(C4=c5cc6c7c(c5Oc5c4cc4c8c5CCCN8CCC4)CCC[N+]=7CCC6)c3)nn2-c2ccc(S(N)(=O)=O)cc2)cc1 [Compound 30e]
Ans: < 4.60

Q: Identify the reported pIC50 for the following entry. COc1ccc2c(c1)c(CC(=O)NCCNC(=O)c1ccc(C(=O)[O-])c(C3=c4cc5c6c(c4Oc4c3cc3c7c4CCCN7CCC3)CCC[N+]=6CCC5)c1)c(C)n2C(=O)c1ccc(Cl)cc1 [Compound 27ww]
Ans: < 4.60

Q: Identify the reported pIC50 for the following entry. COc1ccc2c(c1)c(CC(=O)NCCCNC(=O)c1ccc(C(=O)[O-])c(-c3c4ccc(=[N+](C)C)cc-4oc4cc(N(C)C)ccc34)c1)c(C)n2C(=O)c1ccc(Cl)cc1 [Compound 27aaa]
Ans: 5.41

Q: Identify the reported pIC50 for the following entry. COc1ccc2c(c1)c(CC(=O)NCCCCNC(=O)c1ccc(-c3c4ccc(=O)cc-4oc4cc(O)ccc34)c(C(=O)O)c1)c(C)n2C(=O)c1ccc(Cl)cc1 [Compound 27pp]
Ans: < 4.60

Q: Identify the reported pIC50 for the following entry. COc1ccc2c(c1)c(CC(=O)NCCNC(=O)c1cc3ccccc3oc1=O)c(C)n2C(=O)c1ccc(Cl)cc1 [Compound 27cc]
Ans: 6.10
